- EXPERIMENT: Acute intervention: nutrikinetics of plasma metabolites after ingestion of O. europaea extract (untargeted HPLC-ESI-QTOF-MS)
- APPLIED CONDITIONS: in vivo
Where a name gives a salt, the structure may show the parent alone.
We label by threshold. Values of mean chromatographic area in plasma, T4 strictly beneath 100 are satisfied. Values of 100 and up are not satisfied.

Does O=c1cc(-c2ccc(O)cc2)oc2c([C@@H]3O[C@H](CO)[C@@H](O)[C@H](O)[C@H]3O)c(O)c([C@@H]3O[C@H](CO)[C@@H](O)[C@H](O)[C@H]3O)c(O)c12 have mean chromatographic area in plasma, T4 strictly under 100? satisfied

mean chromatographic area in plasma, T4 strictly < 100 for this molecule? C=Cc1ccc(O)c(OC)c1 satisfied

Here's an entry: COc1cc(C=O)ccc1O[C@@H]1O[C@H](C(=O)O)[C@@H](O)[C@H](O)[C@H]1O [vanillin glucuronide] . Is its mean chromatographic area in plasma, T4 below 100? satisfied

Dear colleague, could you confirm whether mean chromatographic area in plasma, T4 of COc1cc(CC(=O)O)ccc1OS(=O)(=O)O [homovanillic acid sulfate isomer 1, homovanillic acid sulfate] falls below 100? Thanks. not satisfied

Quick check: mean chromatographic area in plasma, T4 of COc1cc(CCC(=O)O)ccc1O[C@@H]1O[C@H](C(=O)O)[C@@H](O)[C@H](O)[C@H]1O [dihydroferulic acid 4-O-glucuronide] under 100? not satisfied

Dear colleague, could you confirm whether mean chromatographic area in plasma, T4 of O=C(O)CCCCCCCCC(=O)O [debacic acid isomer 3, sebacic acid] falls below 100? Thanks. not satisfied

* * *

Entries and their measured mean chromatographic area in plasma, T4 follow.
- EXPERIMENT: Acute intervention: nutrikinetics of plasma metabolites after ingestion of L. citriodora extract (untargeted HPLC-ESI-QTOF-MS)
- APPLIED CONDITIONS: 4 h after L. citriodora extract
Counter-ions that a name gives are not always drawn.
# answer = number (no unit)

Cc1cccc(O)c1O = 86
CC1=CC(=O)CC(C)(C)C1(O)/C=C/C(C)=C/COC1OC(CO)C(O)C(O)C1O (single isomer, unassigned; isomer 1) [abscisic alcohol 11-glucoside isomer 1, abscisic alcohol 11-glucoside] = 0
COc1cc(CCCO)ccc1OC1OC(CO)C(O)C(O)C1O (single isomer, unassigned; isomer 1) [dihydroconiferin isomer 1, dihydroconiferin] = 0
CC(O)/C=C\C/C=C\C/C=C\CCCCCCCC(=O)O (centres unmarked) [17-hydroxylinolenic acid] = 184
CC(C)=C1CC2(C)C(=CC1=O)CCC(OC1OC(CO)C(O)C(O)C1O)C2C (centres unmarked) [isopetasoside] = 25
COc1cc(CCCO)ccc1OC1OC(CO)C(O)C(O)C1O (single isomer, unassigned; isomer 2) [dihydroconiferin isomer 2, dihydroconiferin] = 0

Need mean chromatographic area in plasma, T4 of C=C(C)[C@@H]1[C@H]2OC(=O)[C@@H]1[C@]1(O)C[C@H]3O[C@]34C(=O)O[C@H]2[C@]14C , thanks. 0

// returns reported mean chromatographic area in plasma, T4 for input CC1=CC(=O)CC(C)(C)C1(O)/C=C/C(C)=C/COC1OC(CO)C(O)C(O)C1O (single isomer, unassigned; isomer 3) [abscisic alcohol 11-glucoside isomer 3, abscisic alcohol 11-glucoside] 13

Can you look up the measured mean chromatographic area in plasma, T4 of COc1cc(CCO)ccc1OS(=O)(=O)O [homovanillyl alcohol sulfate] for me? 45

* * *

- EXPERIMENT: Acute intervention: nutrikinetics of plasma metabolites after ingestion of O. europaea extract (untargeted HPLC-ESI-QTOF-MS)
- APPLIED CONDITIONS: 8 h after O. europaea extract
ASSAY READOUT: mean chromatographic area in plasma, T8
Lab note: jot down the number only; don't add units.

C[C@]12CC[C@@H](O[C@@H]3O[C@H](C(=O)O)[C@@H](O)[C@H](O)[C@H]3O)C[C@@H]1CC[C@@H]1[C@@H]2C(=O)C[C@@]2(C)[C@H]1CC[C@]2(O)[C@@H](O)CO [cortolone-3-glucuronide] = 63
OC[C@H]1O[C@@H](OCc2ccoc2)[C@H](O)[C@@H](O)[C@@H]1O (single isomer, unassigned; isomer 1) [3-furanmethanol glucoside isomer 1, 3-furanmethanol glucoside] = 0
O=C(/C=C/C1=CC(=O)C(=O)C=C1)OC1CC(O)(C(=O)O)CC(O)C1O (stereo not drawn) = 0
COc1cc(C(=O)O)ccc1OC1OC(C(=O)O)C(O)C(O)C1O (stereo not drawn) [vanillic acid glucuronide] = 22

Any idea what its mean chromatographic area in plasma, T8 is? The compound is COC(=O)C1=CO[C@H](O)/C(=C/CO)[C@@H]1CC(=O)OCCc1ccc(O)c(O)c1 [10-hydroxyoleuropein aglycone] 0

Query (compound): O=C(Oc1cc(O)c2c(c1)O[C@H](c1cc(O)c(O)c(O)c1)[C@H](O)C2)c1cc(O)c(O)c(O)c1 [epigallocatechin 7-O-gallate] ; field requested: mean chromatographic area in plasma, T8 0

Please report the recorded mean chromatographic area in plasma, T8 for OC[C@H]1O[C@@H](OCc2ccoc2)[C@H](O)[C@@H](O)[C@@H]1O (single isomer, unassigned; isomer 2) [3-furanmethanol glucoside isomer 2, 3-furanmethanol glucoside] . 113

I am curious: what mean chromatographic area in plasma, T8 value has been reported for Oc1cc(O)c2c(c1)O[C@H](c1ccc(O)c(O)c1)[C@H](O)[C@H]2SCc1ccccc1 [4β-benzylthioepicatechin] ? 0

Consider the compound shown here: COc1cc(-c2oc3cc(O[C@@H]4O[C@@H](C)[C@H](O)[C@@H](O)[C@H]4O)cc(O)c3c(=O)c2O[C@@H]2O[C@H](CO)[C@@H](O)[C@H](O)[C@H]2O)ccc1O What is its recorded mean chromatographic area in plasma, T8? 0

Data request, read-out mean chromatographic area in plasma, T8, for COc1cc(C(=O)O)ccc1OS(=O)(=O)O [vanillic acid 4-O-sulfate isomer 1, vanillic acid 4-O-sulfate] 137

Which mean chromatographic area in plasma, T8 is reported for this compound? O=C(O)CCCCCCCCC(=O)O [decanedioic acid isomer 2, decanedioic acid] 38

* * *

- EXPERIMENT: Acute intervention: nutrikinetics of plasma metabolites after ingestion of O. europaea extract (untargeted HPLC-ESI-QTOF-MS)
- APPLIED CONDITIONS: in vivo
Counter-ions that a name gives are not always drawn.
Each item that follows carries a reported mean chromatographic area in plasma, T8.
// print number alone

COc1cc(CC(=O)O)ccc1OS(=O)(=O)O [homovanillic acid sulfate isomer 1, homovanillic acid sulfate] = 108
COc1cc(C=O)ccc1O[C@@H]1O[C@H](C(=O)O)[C@@H](O)[C@H](O)[C@H]1O [vanillin glucuronide] = 0
COc1cc(CCC(=O)O)ccc1O[C@@H]1O[C@H](C(=O)O)[C@@H](O)[C@H](O)[C@H]1O [dihydroferulic acid 4-O-glucuronide] = 74
C=Cc1ccc(O)c(OC)c1 = 0
O=C(O)CCCCCCCCC(=O)O [debacic acid isomer 3, sebacic acid] = 178

Turning to the following compound.
Looking for the measured mean chromatographic area in plasma, T8 of O=c1cc(-c2ccc(O)cc2)oc2c([C@@H]3O[C@H](CO)[C@@H](O)[C@H](O)[C@H]3O)c(O)c([C@@H]3O[C@H](CO)[C@@H](O)[C@H](O)[C@H]3O)c(O)c12 , can you help? 0

* * *

- EXPERIMENT: Acute intervention: nutrikinetics of plasma metabolites after ingestion of L. citriodora extract (untargeted HPLC-ESI-QTOF-MS)
- APPLIED CONDITIONS: in vivo
Structures can show the parent of a compound that is named as a salt.
ASSAY READOUT: mean chromatographic area in plasma, T4
Quick one: just the number, no unit, thanks!

O=C(O)C=Cc1ccc(OS(=O)(=O)O)c(O)c1 (single isomer, unassigned; isomer 2) [caffeic acid 4-sulfate isomer 2, caffeic acid 4-sulfate] = 266
O=C(O)CCCCCCCCC(=O)O [sebacic acid isomer, sebacic acid] = 0
O=C(O)CCCCCCCCC(=O)O [sebacic acid Isomer 2, sebacic acid] = 15
COc1cc(CC(=O)O)ccc1OS(=O)(=O)O [homovanillic acid sulfate isomer 1, homovanillic acid sulfate] = 147

Please look up its mean chromatographic area in plasma, T4: O=C(O)C=Cc1ccc(OS(=O)(=O)O)c(O)c1 (single isomer, unassigned; isomer 1) [caffeic acid 4-sulfate isomer 1, caffeic acid 4-sulfate] 177

* * *

Listed here: items and their measured mean chromatographic area in plasma, T2.
- EXPERIMENT: Acute intervention: nutrikinetics of plasma metabolites after ingestion of O. europaea extract (untargeted HPLC-ESI-QTOF-MS)
- APPLIED CONDITIONS: in vivo
Counter-ions that a name gives are not always drawn.
Kindly provide the number alone.

O=C(O)CCCCCCCCC(=O)O [debacic acid isomer 3, sebacic acid] = 33

Could you share which mean chromatographic area in plasma, T2 value was measured for COc1cc(CC(=O)O)ccc1OS(=O)(=O)O [homovanillic acid sulfate isomer 1, homovanillic acid sulfate] ? 192

What measured mean chromatographic area in plasma, T2 goes with O=c1cc(-c2ccc(O)cc2)oc2c([C@@H]3O[C@H](CO)[C@@H](O)[C@H](O)[C@H]3O)c(O)c([C@@H]3O[C@H](CO)[C@@H](O)[C@H](O)[C@H]3O)c(O)c12 [vicenin-2] ? 46

Item COc1cc(CCC(=O)O)ccc1O[C@@H]1O[C@H](C(=O)O)[C@@H](O)[C@H](O)[C@H]1O [dihydroferulic acid 4-O-glucuronide] has what recorded mean chromatographic area in plasma, T2? 94

For the molecule COc1cc(C=O)ccc1O[C@@H]1O[C@H](C(=O)O)[C@@H](O)[C@H](O)[C@H]1O [vanillin glucuronide] , what mean chromatographic area in plasma, T2 is on record? 121

Query: mean chromatographic area in plasma, T2; subject: C=Cc1ccc(O)c(OC)c1 [p-vinylguaiacol] 83
